- experimentalSystem: T1, human programmed cell death protein 1 (hPD-1) C93S (aa 24-167) (Homo sapiens, UniProt Q15116, C93S)
- T1 construct: made as a fusion with a TEV site and human Fc; the Fc was cut off with TEV protease; source: Expi293F, purified (Protein A, TEV cleavage of Fc, SEC; monomer fractions); not shown: Fc (human), C-terminal, cleaved
- T1 sequence (Q15116 24-167 C93S): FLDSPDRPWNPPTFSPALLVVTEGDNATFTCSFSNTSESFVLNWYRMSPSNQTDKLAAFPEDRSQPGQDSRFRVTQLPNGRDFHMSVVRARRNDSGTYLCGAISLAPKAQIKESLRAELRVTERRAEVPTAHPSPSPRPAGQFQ
- assayProtocol: SPR; Carterra LSA; Fab from the ammonium sulfate precipitate of the culture supernatant immobilised on a NiHC200M chip; hPD-1 (1-1024 nM) or mPD-1-Fc (4-1024 nM) as analyte, fourfold dilution series, no regeneration; HBS-EP pH 7.4, 25 °C; medians over the spots of a construct, KD = koff/kon
- recordedConditions: one partner purified
reportedProperty: kon (M⁻¹ s⁻¹)
All answers are understood in M⁻¹ s⁻¹, so give the number only.

Recorded kon, per entry:
toripalimab Fab H.G56Y (Fab, V domains shown, heavy chain of Sm3 with this change; numbers count from the chain's first residue; as the light chain of Sm3; source: Brevibacillus, culture supernatant (ammonium sulfate precipitate); not shown: 6xHis, C-terminal, kept; 6xHN, C-terminal, kept) VH: QGQLVQSGAEVKKPGASVKVSCKASGYTFTDYEMHWVRQAPIHGLEWIGVIESETYGTAYNQKFKGRVTITADKSTSTAYMELSSLRSEDTAVYYCAREGITTVATTYYWYFDVWGQGTTVTVSS VL: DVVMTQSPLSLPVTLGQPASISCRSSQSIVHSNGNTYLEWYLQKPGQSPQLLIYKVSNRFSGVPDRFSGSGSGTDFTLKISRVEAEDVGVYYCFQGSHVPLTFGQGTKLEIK | 5890
toripalimab Fab H.G57A (Fab, V domains shown, heavy chain of Sm3 with this change; numbers count from the chain's first residue; as the light chain of Sm3; source: Brevibacillus, culture supernatant (ammonium sulfate precipitate); not shown: 6xHis, C-terminal, kept; 6xHN, C-terminal, kept) VH: QGQLVQSGAEVKKPGASVKVSCKASGYTFTDYEMHWVRQAPIHGLEWIGVIESETGATAYNQKFKGRVTITADKSTSTAYMELSSLRSEDTAVYYCAREGITTVATTYYWYFDVWGQGTTVTVSS VL: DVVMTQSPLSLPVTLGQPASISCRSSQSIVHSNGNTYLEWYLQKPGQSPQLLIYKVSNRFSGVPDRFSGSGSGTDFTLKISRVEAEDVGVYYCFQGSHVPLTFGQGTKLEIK | 24500
toripalimab Fab H.T103A (Fab, V domains shown, heavy chain of Sm3 with this change; numbers count from the chain's first residue; as the light chain of Sm3; source: Brevibacillus, culture supernatant (ammonium sulfate precipitate); not shown: 6xHis, C-terminal, kept; 6xHN, C-terminal, kept) VH: QGQLVQSGAEVKKPGASVKVSCKASGYTFTDYEMHWVRQAPIHGLEWIGVIESETGGTAYNQKFKGRVTITADKSTSTAYMELSSLRSEDTAVYYCAREGITAVATTYYWYFDVWGQGTTVTVSS VL: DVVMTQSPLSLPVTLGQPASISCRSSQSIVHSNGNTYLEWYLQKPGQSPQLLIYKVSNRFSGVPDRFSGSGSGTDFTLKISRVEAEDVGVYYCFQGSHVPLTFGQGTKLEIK | 8350
toripalimab Fab L.K55A (Fab, V domains shown, as the heavy chain of Sm3; light chain of Sm3 with this change; numbers count from the chain's first residue; source: Brevibacillus, culture supernatant (ammonium sulfate precipitate); not shown: 6xHis, C-terminal, kept; 6xHN, C-terminal, kept) VH: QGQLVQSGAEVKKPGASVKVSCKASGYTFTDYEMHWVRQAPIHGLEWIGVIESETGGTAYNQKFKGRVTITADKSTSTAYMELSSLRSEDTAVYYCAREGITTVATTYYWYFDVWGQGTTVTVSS VL: DVVMTQSPLSLPVTLGQPASISCRSSQSIVHSNGNTYLEWYLQKPGQSPQLLIYAVSNRFSGVPDRFSGSGSGTDFTLKISRVEAEDVGVYYCFQGSHVPLTFGQGTKLEIK | 8480

stdin: Any idea what its kon is? The binder is toripalimab Fab L.N35Y (Fab, V domains shown, as the heavy chain of Sm3; light chain of Sm3 with this change; numbers count from the chain's first residue; source: Brevibacillus, culture supernatant (ammonium sulfate precipitate); not shown: 6xHis, C-terminal, kept; 6xHN, C-terminal, kept) VH: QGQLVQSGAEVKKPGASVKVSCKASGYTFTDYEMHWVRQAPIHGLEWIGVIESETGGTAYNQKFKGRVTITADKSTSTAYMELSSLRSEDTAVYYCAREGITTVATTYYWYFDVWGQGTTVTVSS VL: DVVMTQSPLSLPVTLGQPASISCRSSQSIVHSNGYTYLEWYLQKPGQSPQLLIYKVSNRFSGVPDRFSGSGSGTDFTLKISRVEAEDVGVYYCFQGSHVPLTFGQGTKLEIK
stdout: 23200
